- assay.target: CYP3A (cabozantinib oxidation: formation of monohydroxy cabozantinib) (Homo sapiens, UniProt P08684)
- Sequence (P08684 2-503): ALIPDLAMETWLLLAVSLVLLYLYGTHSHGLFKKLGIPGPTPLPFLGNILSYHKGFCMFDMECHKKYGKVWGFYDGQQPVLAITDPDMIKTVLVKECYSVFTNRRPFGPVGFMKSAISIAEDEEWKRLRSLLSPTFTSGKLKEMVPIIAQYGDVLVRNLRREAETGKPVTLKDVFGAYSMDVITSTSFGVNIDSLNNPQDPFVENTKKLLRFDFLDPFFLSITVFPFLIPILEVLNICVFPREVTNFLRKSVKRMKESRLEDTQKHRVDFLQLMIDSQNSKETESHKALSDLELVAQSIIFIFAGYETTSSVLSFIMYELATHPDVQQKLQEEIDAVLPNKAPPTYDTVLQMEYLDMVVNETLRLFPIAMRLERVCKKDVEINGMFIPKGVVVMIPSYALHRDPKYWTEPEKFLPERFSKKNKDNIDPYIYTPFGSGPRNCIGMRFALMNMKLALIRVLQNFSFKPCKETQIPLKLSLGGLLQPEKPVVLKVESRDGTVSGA
- assay.details: Inhibition study: effect of CYP inhibitors on cabozantinib oxidation in pooled human liver microsomes
- measurement.setup: human
measure: IC50 at 20 min

// field: IC50 at 20 min; key: CC(=O)N1CCN(c2ccc(OCC3COC(Cn4ccnc4)(c4ccc(Cl)cc4Cl)O3)cc2)CC1 (stereo not shown) ; value = < 0.01 µM

---

- assay.target: cabozantinib oxidation in pooled human liver microsomes (Homo sapiens)
- Sequence (P08684 2-503): as above
- assay.details: Inhibition study: effect of CYP inhibitors on cabozantinib oxidation in pooled human liver microsomes
- measurement.setup: read-out: IC50 for inhibition of formation of monohydroxy cabozantinib; pooled human liver microsomes, 50 µM cabozantinib
measure: IC50 (nM)
The figure you give is taken to be in nM; do not add the unit.

Assay cabozantinib oxidation in pooled human liver microsomes (Homo sapiens), sample Cc1ccc(-c2c(-c3nn(C)c4ncnc(N5CC[C@H](N6CCCCC6)C5)c34)cnn2C)cc1 [CYP3cide] , IC50 read: 1120

---

- assay.target: cabozantinib oxidation in pooled human liver microsomes (Homo sapiens)
- assay.details: Inhibition study: effect of CYP inhibitors on cabozantinib oxidation in pooled human liver microsomes
- measurement.setup: read-out: IC50 for inhibition of formation of cabozantinib N-oxide; pooled human liver microsomes, 50 µM cabozantinib
pIC50: −log10 of the molar value.
measure: pIC50

// field: pIC50; key: Cc1ccc(-c2c(-c3nn(C)c4ncnc(N5CC[C@H](N6CCCCC6)C5)c34)cnn2C)cc1 [CYP3cide] ; value = > 8.00

---

- assay.target: CYP3A (cabozantinib oxidation: formation of cabozantinib N-oxide) (Homo sapiens, UniProt P08684)
- Sequence (P08684 2-503): as above
- assay.details: Inhibition study: effect of CYP inhibitors on cabozantinib oxidation in pooled human liver microsomes
- measurement.setup: human
- Procedure: Inhibition studies in pooled human liver microsomes were conducted with six inhibitors. […] The IC50 values for employed inhibitors were determined by the procedure described previously. […] Then, mixtures were incubated for a further 20 min at 37 °C.
measure: IC50 at 20 min

// field: IC50 at 20 min; key: CC(=O)N1CCN(c2ccc(OCC3COC(Cn4ccnc4)(c4ccc(Cl)cc4Cl)O3)cc2)CC1 (stereo not shown) ; value = < 10 nM

---

- assay.target: CYP3A (cabozantinib oxidation: formation of desmethyl cabozantinib) (Homo sapiens)
- Sequence (P08684 2-503): as above
- assay.details: Inhibition study: effect of CYP inhibitors on cabozantinib oxidation in pooled human liver microsomes
- measurement.setup: human
measure: IC50 at 20 min

// field: IC50 at 20 min; key: CC(=O)N1CCN(c2ccc(OCC3COC(Cn4ccnc4)(c4ccc(Cl)cc4Cl)O3)cc2)CC1 (stereo not shown) ; value = < 10 nM

Data origin: paper PMC7759869
